molecular target: human PCSK9 (proprotein convertase subtilisin kexin type 9) (human, UniProt Q8NBP7 31-692); experiment: cell-based or functional assay
Sequence (Q8NBP7 31-692 limits assumed): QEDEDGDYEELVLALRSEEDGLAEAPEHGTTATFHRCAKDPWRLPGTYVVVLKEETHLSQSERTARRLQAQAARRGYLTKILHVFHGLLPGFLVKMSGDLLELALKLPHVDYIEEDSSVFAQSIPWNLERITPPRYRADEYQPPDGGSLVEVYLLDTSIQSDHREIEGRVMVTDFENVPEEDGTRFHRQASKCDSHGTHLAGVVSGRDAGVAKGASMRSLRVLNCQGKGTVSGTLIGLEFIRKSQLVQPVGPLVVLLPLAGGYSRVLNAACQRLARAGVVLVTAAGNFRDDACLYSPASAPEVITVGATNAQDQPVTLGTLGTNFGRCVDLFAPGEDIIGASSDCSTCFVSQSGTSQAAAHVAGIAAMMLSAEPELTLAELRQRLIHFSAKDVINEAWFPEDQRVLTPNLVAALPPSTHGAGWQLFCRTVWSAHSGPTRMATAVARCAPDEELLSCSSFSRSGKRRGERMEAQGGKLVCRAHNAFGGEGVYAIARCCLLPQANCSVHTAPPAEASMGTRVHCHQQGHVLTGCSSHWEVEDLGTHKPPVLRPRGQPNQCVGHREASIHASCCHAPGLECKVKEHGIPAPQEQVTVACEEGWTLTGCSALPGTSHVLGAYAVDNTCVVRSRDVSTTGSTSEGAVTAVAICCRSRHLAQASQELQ
Recorded LDLR Depletion (% inhibition at 75 nM) for the following binders
Give your result in % as a bare value.

Past entries and their recorded results:
{"columns": ["BINDER", "LDLR Depletion (% inhibition at 75 nM) [%]"],
 "data": [
  ["2382B09 (designed binder) MGVSDVPRDLEVVAATPTSLLISWDAPADAYGYYRITYGETGGNSPVQEFTVPVSKGTATISGLKPGVDYTITVYAVEFDYPGSGYYHRPISINYRTEIDKPSQHHHHHH", 105],
  ["2381C08 (designed binder) MGVSDVPRDLEVVAATPTSLLISWDAPADGAYGYYRITYGETGGNSPVQEFTVPVSKGTATISGLKPGVDYTITVYAVEFPYPFAGYYHRPISINYRTEIDKPSQHHHHHH", 15.3],
  ["2382H09 (designed binder) MGVSDVPRDLEVVAATPTSLLISWDAPAAAYGYYRITYGETGGNSPVQEFTVPSSKGTATISGLKPGVDYTITVYAVEFDFPGSGYYHRPISINYRTEIDKPSQHHHHHH", 101],
  ["1923B02 (designed binder) MGVSDVPRDLEVVAATPTSLLISWTPPPKGYGYYRITYGETGGNSPVQEFTVPVGEGTATISGLKPGVDYTITVYAVEYTYNGAGYYHRPISINYRTEIDKPSQHHHHHH", 178],
  ["2381D02 (designed binder) MGVSDVPRDLEVVAATPTSLLISWEPFSRLPGGGEYYRITYGETGGNSPLQQFTVPGSKGTATISGLKPGVDYTITVYAVEYPYDHSGYYHRPISINYRTEIDKPSQHHHHHH", 185]
]}

Q: # get_value(readout='LDLR Depletion (% inhibition at 75 nM)', item= 2382H07 (designed binder) MGVSDVPRDLEVVAATPTSLLISWDAPADAYGYYRITYGETGGNSPVQEFTVPGSKGTATISGLKPGVDYTITVYAVEFDFPGSGYYHRPISINYRTEIDKPSQHHHHHH )
A: 86.2

Q: Next record, please: 2451A02 (designed binder) MGVSDVPRDLEVVAATPTSLLISWDAPAAGYGYYRITYGETGGNSPVQEFTVPVSKGTATISGLKPGVDYTITVYAVEFPFPGSGYYHRPISINYRTEIDKPSQHHHHHH
A: 106

Q: Next record, please: 2013E01 (designed binder, unmodified (not PEGylated) Adnectin; also called ATI001081) MGVSDVPRDLEVVAATPTSLLISWVPPSDDYGYYRITYGETGGNSPVQEFTVPIGKGTATISGLKPGVDYTITVYAVEFPWPHAGYYHRPISINYRTEIDKPSQHHHHHH
A: 166

Q: Next record, please: 2382D08 (designed binder) MGVSDVPRDLEVVAATPTSLLISWDAPADGYGYYRITYGETGGNSPVQEFTVPVSKGTATISGLKPGVDYTITVYAVEFPFPGSGYYHRPISINYRTEIDKPSQHHHHHH
A: 107

Q: Next record, please: 2971A03 (designed binder) MGVSDVPRDLEVVAATPTSLLISWDPPSDDYGYYRITYGETGGNSPVQEFTVPIGKGTATISGLKPGVDYTITVYAVEFPWPHAGYYHRPISINYRTEIDKPSQHHHHHH
A: 120
